target: T1, recombinant human CD3 epsilon/delta heterodimer (human, UniProt P07766 23-126; P04234 22-105); assay: Octet BLI, mAb on FAB2G sensor, hCD3 E/D 200-50 nM; R^2 0.97
T1 construct: Recombinant protein in solution (200-50 nM) in the Octet assay; also called hCD3 E/D; human CD3E/D
T1 sequence (P07766 23-126, stated change not applied, chain 1 of 2): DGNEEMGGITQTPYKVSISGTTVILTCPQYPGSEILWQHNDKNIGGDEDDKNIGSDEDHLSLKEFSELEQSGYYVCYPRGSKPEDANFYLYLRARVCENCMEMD
T1 sequence (P04234 22-105, stated change not applied, chain 2 of 2): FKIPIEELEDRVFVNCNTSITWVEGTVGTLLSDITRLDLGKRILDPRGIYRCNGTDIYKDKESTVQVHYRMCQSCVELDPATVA
READOUT_NAME: Response
Returns: the value as a bare number; no unit string appended.

Query block: Can you look up the measured Response of ABL-CD3-17 (antibody, V domains shown, Chimeric hybridoma mAb: human V, CH1, upper hinge; mouse middle hinge, CH2, CH3) VH: EVQLVESGGGLVQPGGSLRLSCAASGFTFSRYSINWVRQAPGKGLEWVSYISSSSSTIYYADSVKGRFTISRDNAKNSLYLQMNSLRDEDTAVYYCARERWELLYFDYWGQGTLVTVSS VL: NFMLTQPHSVSESPGKTVTISCTRSSGSIASKYVQWYQQRPGSSPTTVIYEDNQRPSGVPDRFSGSIDSSSNSASLTISGLKTEDEADYYCQSYDSNNRVFGGGTKLTVL for me?
Result block: 0.22

Query block: // query: ABL-CD3-35 (antibody, V domains shown, Chimeric hybridoma mAb: human V, CH1, upper hinge; mouse middle hinge, CH2, CH3) VH: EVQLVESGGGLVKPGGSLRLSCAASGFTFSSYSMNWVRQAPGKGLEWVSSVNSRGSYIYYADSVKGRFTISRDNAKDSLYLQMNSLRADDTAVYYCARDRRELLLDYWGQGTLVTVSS VL: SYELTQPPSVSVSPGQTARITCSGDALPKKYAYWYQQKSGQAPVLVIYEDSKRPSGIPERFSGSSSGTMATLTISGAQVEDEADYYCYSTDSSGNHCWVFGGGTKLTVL
Result block: 0.36

Query block: // query: ABL-CD3-14 (antibody, V domains shown, Chimeric hybridoma mAb: human V, CH1, upper hinge; mouse middle hinge, CH2, CH3) VH: EVQLVESGGGLVKPGGSLRLSCAASGFTCSSYSMTWVRQAPGKGLEWVSSISRRSSYIYYADSVKGRFTISRDNAKNSLYLQLNSLRAEDTAVYYCARERWELLYFDYWGQGTLVTVSS VL: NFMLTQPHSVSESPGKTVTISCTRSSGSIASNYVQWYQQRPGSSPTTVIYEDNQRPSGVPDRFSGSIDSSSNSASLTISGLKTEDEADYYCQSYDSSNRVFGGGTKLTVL
Result block: 0.17

Query block: // query: ABL-CD3-38 (antibody, V domains shown, Chimeric hybridoma mAb: human V, CH1, upper hinge; mouse middle hinge, CH2, CH3) VH: QGQLQQWGAGLLKPSETLSLTCAVYGGSFSGYYWSWIRLPPGKGLEWIGEINHSGNTNYNPSLKSRVTISVDTSKNQFSLQLSSVTAADTAVYYCAKEVEIWGYFDYWGQGTLVTVSS VL: QSVLTQPPSVSGAPGQRVTISCTGSSSNIGAGYDVHWYQQLPGTAPKLLIYGNSNRPSGVPDRFSGSKSGTSASLAITGLQAEDETDYNCQSYDSSLSGYVFGTGTKVTVL
Result block: 0.73
